The measurements presented in this section are drawn from patent US20240174690A1.

Entries and their measured HLM QH follow.
assay-explanation: Metabolic (microsomal) stability assay, human liver microsomes (HLM)
Assay type: in vitro ADME
condition-label: predicted clearance as percent of liver blood flow, 1 μM
endpoint: HLM QH

- smiles-structure: "C[C@H](Oc1cc(-n2cnc3cccnc32)nc(-c2noc3c2CCC[C@@]32CCCc3sc(N)c(C#N)c32)n1)[C@@H]1CCCN1C"
  result: "<24%"
- smiles-structure: "C[C@H]1CNCCCN1c1cc(-c2ccn(C)n2)nc(-c2noc3c2CCC[C@@]32CCCc3sc(N)c(C#N)c32)n1"
  result: "<24%"
- smiles-structure: "C[C@H](Oc1cc(-c2cccc(CO)c2)nc(-c2noc3c2CCC[C@@]32CCCc3sc(N)c(C#N)c32)n1)[C@@H]1CCCN1C"
  result: "<24%"
- smiles-structure: "C[C@H](Oc1cc(N2CC[C@H](N(C)C)C2)nc(-c2noc3c2CCC[C@@]32CCCc3sc(N)c(C#N)c32)n1)[C@@H]1C[C@@H](F)CN1C"
  result: "<24%"
- smiles-structure: "C[C@H](Oc1cc(-n2ccc(C(=O)N(C)C3COC3)n2)nc(-c2onc3c2CCC[C@@]32CCCc3sc(N)c(C#N)c32)n1)[C@@H]1CCCN1C"
  result: "<24%"
- smiles-structure: "C[C@H](Oc1cc(N2CCN(C)C3(COC3)C2)nc(-c2noc3c2CCC[C@@]32CCCc3sc(N)c(C#N)c32)n1)[C@@H]1CCCN1C"
  result: "<24%"
- smiles-structure: "C[C@H](Oc1cc(N2CCNC3(CC3)C2)nc(-c2noc3c2CCC[C@@]32CCCc3sc(N)c(C#N)c32)n1)[C@@H]1C[C@@H](F)CN1C"
  result: "61%"
- smiles-structure: "C[C@H](Oc1cc(N2CCN(C)CC2)nc(-c2noc3c2CCC[C@@]32CCCc3sc(N)c(C#N)c32)n1)[C@@H]1CCCN1[C@@H]1CCOC1"
  result: "52%"
- smiles-structure: "C[C@H](Oc1cc(-n2cc3ccn([C@@H](C)c4ccccn4)c(=O)c3n2)nc(-c2noc3c2CCC[C@@]32CCCc3sc(N)c(C#N)c32)n1)[C@@H]1CCCN1C"
  result: "<24%"
- smiles-structure: "C[C@H](Oc1cc(N2CCN(C)C3(COC3)C2)nc(-c2onc3c2CCC[C@@]32CCCc3sc(N)c(C#N)c32)n1)[C@@H]1C[C@@H](F)CN1C"
  result: "51%"
- smiles-structure: "C[C@H](Oc1cc(-c2ccn([C@H]3CCCOC3)n2)nc(-c2noc3c2CCC[C@@]32CCCc3sc(N)c(C#N)c32)n1)[C@@H]1CCCN1C"
  result: "<24%"
